Assay: MTS cell viability assay, A549
Format: cell-based
Details: human, A549 cells; concentrations of ≥1250 µg/mL, time not stated
Metric name: viability

Exercise: Reported viability for COc1cc(/C=N/N=C2\SCC(=O)N2Cc2ccccc2)cc(OC)c1OC : what is it?
Solution: < 25%

###

Could you please report measured viability at 24 h, 1250 µg/mL for the items listed next?
Test: MTS cell viability assay, HepG2
Format: cell-based
Settings: human, HepG2 cells, 24 h, 1250 µg/mL
Response body: numeric value in %, unit text excluded.

Exercise: Look up viability at 24 h, 1250 µg/mL for this compound: COc1cc(/C=N/N=C2\SCC(=O)N2Cc2ccc([N+](=O)[O-])cc2)cc(OC)c1OC [TZD-7]
Solution: 96.4

Exercise: May I ask what viability at 24 h, 1250 µg/mL has been recorded for COc1cc(C=NNC2=NC(=O)CS2)cc(OC)c1OC [TZD-1] ?
Solution: 53.2

Exercise: Reported viability at 24 h, 1250 µg/mL for COc1cc(/C=N/N=C2\SCC(=O)N2Cc2ccccc2)cc(OC)c1OC [TZD-6] : what is it?
Solution: 25
